Give measured viability, T/C for each item. Keep answers brief.
Test system: K98450-129-R-PDC complex spheroid growth, percent test/control;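 also: luminescence used as a proxy for viable cell amount; spheroids exposed to agents for seven days before the viability readout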
TEST DETAILS: Anticancer human tumor K98450-129-R-PDC patient-derived colon adenocarcinoma cell line growth inhibition [RAS]
CONDITION INFO: second compound 0.003 µM; first compound 1 µM; stronger effect = lower value
One number for each entry, in %.

These solved cases illustrate the format of a correct answer.
COMPOUND	viability, T/C / %
CC(=O)OC12COC1CC(O)C1(C)C(=O)C(O)C3=C(C)C(OC(=O)C(O)C(NC(=O)OC(C)(C)C)c4ccccc4)CC(O)(C(OC(=O)c4ccccc4)C21)C3(C)C (stereo not given) + CCn1c(-c2cc(N3CCN(C)CC3)cnc2C(C)OC)c2c3cc(ccc31)-c1csc(n1)CC(NC(=O)C1CC1C)C(=O)N1CCCC(N1)C(=O)OCC(C)(C)C2	29.2
Cc1nc(N2CCC3(CC2)COC(C)C3N)c(CO)nc1Sc1ccnc(N)c1Cl (stereo not given) + CCn1c(-c2cc(N3CCN(C)CC3)cnc2C(C)OC)c2c3cc(ccc31)-c1csc(n1)CC(NC(=O)C1CC1C)C(=O)N1CCCC(N1)C(=O)OCC(C)(C)C2	51.8
Nc1ccn(C2OC(CO)C(O)C2(F)F)c(=O)n1 (stereo not given) + CCn1c(-c2cccnc2C(C)OC)c2c3cc(ccc31)N1CCOC(CC(NC(=O)C(C(C)C)N(C)C(=O)C3(F)CCN(C(=O)C#CC(C)(C)N(C)C)CC3)C(=O)N3CCCC(N3)C(=O)OCC(C)(C)C2)C1	17
O=C(c1ccc(F)c(F)c1Nc1ccc(I)cc1F)N1CC(O)([C@@H]2CCCCN2)C1 + CCn1c(-c2cc(N3CCN(C)CC3)cnc2C(C)OC)c2c3cc(ccc31)-c1csc(n1)CC(NC(=O)C1CC1C)C(=O)N1CCCC(N1)C(=O)OCC(C)(C)C2	2.62

Per the records, this compound ( NC1c2ccccc2OC12CCN(c1cnc3c(N4CCCc5ncccc54)n[nH]c3n1)CC2 (stereo not given) + CCn1c(-c2cccnc2C(C)OC)c2c3cc(ccc31)N1CCOC(CC(NC(=O)C(C(C)C)N(C)C(=O)C3(F)CCN(C(=O)C#CC(C)(C)N(C)C)CC3)C(=O)N3CCCC(N3)C(=O)OCC(C)(C)C2)C1 ) has viability, T/C equal to 6.76

Origin of values: PubChem BioAssay AID2060891
